Value source: paper PMC9326216

Give measured IC50 for each item. Keep answers brief.
ASSAY_SYSTEM: PDE5 (Homo sapiens, UniProt O76074)
Construct: purchased Sigma-Aldrich, St. Louis, United States
ASSAY_COMMENT: Phosphodiesterase assay: inhibition of cGMP hydrolysis by recombinant PDE5
Type: biochemical
REPORTED_CONDITIONS: 24°C; 5 µM cGMP, 30 min
Respond with the bare value in µM.

Entry Nc1cc(-c2ccncc2)c[nH]c1=O under PDE5 (Homo sapiens, UniProt O76074) had IC50 of 99.1

Entry C[C@@H]1CC(=O)NN=C1c1ccc(NN=C(C#N)C#N)cc1 under PDE5 (Homo sapiens, UniProt O76074) had IC50 of 148
